Taken from ChEMBL document CHEMBL1201862.

Tested on: UACC-62
procedure_text: NCI tumour cell line growth inhibition, 48 h
The source made the active and inactive calls. Rule as the data show it: active = GI50 up to about 1.1 µM and inactive = higher.
measured_parameter: GI50

| molecule | target_of_assay | endpoint_result |
| --- | --- | --- |
| C[C@@H](CC(=O)O)OC1OC(COC(=O)C(C)(C)C)C(OC(=O)C(C)(C)C)C(OC(=O)C(C)(C)C)C1OC(=O)C(C)(C)C (stereo not given in full) | UACC-62 | 71.9 µM (inactive) |
| CC(=O)Nc1ccc(C(=O)N[C@@H]2C(=O)N3[C@@H]2SC(C)(C)[C@@H]3C(=O)O)cn1 | UACC-62 | > 100 µM (inactive) |
| CCOP(=O)(OCC)/C(C#N)=C/c1ccnc2ccccc12 | UACC-62 | 26.1 µM (inactive) |
| O=C(/C=C/C(=O)N1CCCC1)N1CCCC1 | UACC-62 | > 100 µM (inactive) |
| COc1cc(OC)c2nc(C)c(CCCl)c(Cl)c2c1 | UACC-62 | > 100 µM (inactive) |
| O=C(O)CNc1ccc2c(c1)Cc1cc(Br)ccc1-2 | UACC-62 | 17.4 µM (inactive) |
| O=C(Nc1ccc(Cl)cc1)Oc1ccc(C(=S)Nc2ccc(Br)cc2)cc1 | UACC-62 | 1.63 µM (inactive) |
| COC(=O)c1ccccc1CC1Cc2ccc3c(c2C1=O)CCCC3 (stereo not given) | UACC-62 | 57.1 µM (inactive) |
| COc1ccc(/C=N/n2cnc3c(sc(=S)n3-c3ccccc3)c2=O)cc1 | UACC-62 | 16.7 µM (inactive) |
| COC1=C(C(=O)OC(C)(C)C)C23CCCCC2(C(C(=O)OC(C)(C)C)=C(OC)C3C(=O)OC(C)(C)C)C1C(=O)OC(C)(C)C (stereo not given) | UACC-62 | 54.8 µM (inactive) |

---

System: DMS-114
procedure_text: NCI tumour cell line growth inhibition, 48 h
Calls of active or inactive are those of the source. Cut-off read from the data, not from the text of the source: active = GI50 up to about 1.1 µM and inactive = higher.
Outcome codes: active, inactive

| molecule | assigned_label |
| --- | --- |
| COc1ccc2occ(CCC(=O)O)c2c1 | inactive |
| c1ccc(C(c2ccccc2)c2cccnc2)cc1 | inactive |
| CCOC(=O)C(=O)C(C#N)c1ccc(Cl)cc1 (stereo not given) | inactive |
| CCOC(=O)CC(=O)ON(C)C(C)=O | inactive |
| O=[N+]([O-])c1ccc(NC2OCC(O)C(O)C2O)cc1 (stereo not given) | inactive |
| CCOC(=O)C1(C)CCC(C(C(=O)O)C(=O)O)CC1=O (stereo not given) | inactive |
| C[Si](C)(C)C(Sc1ccccc1)(Sc1ccccc1)Sc1ccccc1 | inactive |
| COc1ccc2c(c1)CC1c3c(ccc(OC)c3O)CC2N1C (stereo not given) | inactive |
| CCOc1ccc2nc(NC(=O)c3c/c(=N\NC(=O)C[N+](C)(C)C)c4ccc(O)cc4o3)sc2c1 | inactive |
| CN(CC#N)C1CCCC[C@H]1O (stereo not given in full) | inactive |
| Cc1ccc2oc(=O)c3c(O)c4cccc(OC5OC(C)C6O[C@@H](c7ccccc7)OC6C5OC5OC(C)C(O)C(O)C5O)c4c4oc(=O)c1c2c34 (stereo not given in full) | active |
| COC(=O)C1=C(C(=O)OC)C2(OC(C)=O)c3ccccc3-c3ccccc3C12 (stereo not given) | inactive |
| Cn1cnc([N+](=O)[O-])c1Sc1nccn1-c1cccc2ccccc12 | inactive |
| CCN(CC)C(=O)CCn1cc(F)c(=O)[nH]c1=O | inactive |
| CN(C)c1ccc(/C=c2\sc3nnc(Cc4ccccc4)n3c2=O)cc1 | inactive |
| CNC(=O)OCc1c(CO)nc(SC)n1C | inactive |
| COc1ccc(C(=O)O)c(Cc2ccc3ccccc3c2)c1 | inactive |
| COc1c(C)c2c(c3c1c(=O)c1ccccc1n3C)C=CC(C)(C)O2 | inactive |
| N#Cc1c2nc3ccccc3nc2n2ccc3ccccc3c12 | inactive |
| Nc1nc2c(c(=O)[nH]1)NC(CO)CN2 (stereo not given) | inactive |
| CCC(/C(=N\Nc1c(Cl)cc(Cl)cc1Cl)c1ccccc1)n1ccnc1C (stereo not given) | inactive |
| CC1Cc2c(N)nc(NN)nc2NC1=O (stereo not given) | inactive |
| O=C(Oc1ccc(Cl)cc1[N+](=O)[O-])c1ccccc1 | inactive |
| CCC12CCCN(Cc3ccccc3)C1c1c(n(C)c3ccccc13)C(CO)C2 (stereo not given) | inactive |
| Cc1cccc(NC(=O)c2cccc([N+](=O)[O-])c2O)c1C | inactive |

---

Test system: Malme-3M
procedure_text: NCI tumour cell line growth inhibition, 48 h
Activity calls are given as the source filed them. No stated cut-off is given here; in the data, active = GI50 up to about 1.1 µM and inactive = higher.

| compound | GI50 |
| --- | --- |
| COC(=O)C1Cc2ccc(O)c(O)c2CN1 (stereo unspecified) | 32.1 µM (inactive) |
| Cc1cccc(C)c1NC(=O)CCC/C(CC(=O)c1ccc(F)cc1)=N\NC(=O)C(=O)NN | > 100 µM (inactive) |
| CCOP(=O)(OCC)C(F)(F)CC1CCCCC1 | > 10 µM (inactive) |
| CCC(/C(=N\Nc1c(Cl)cc(Cl)cc1Cl)c1ccccc1)n1ccnc1C (stereo unspecified) | 11.7 µM (inactive) |
| CSc1ccc(NC(=S)NN(C)C)cc1 | > 10 µM (inactive) |
| Cc1cc([N+](=O)[O-])ccc1Sc1c2ccccc2nc2ccccc12 | > 100 µM (inactive) |

---

Catalogue of GI50 values
System: SK-MEL-28
procedure_text: NCI tumour cell line growth inhibition, 48 h
The source made the active and inactive calls. No stated cut-off is given here; in the data, active = GI50 up to about 1.1 µM and inactive = higher.
measured_parameter: GI50

| molecule | measured_parameter | endpoint_result |
| --- | --- | --- |
| O=C1c2ccccc2C(=O)c2c(NCC3CO3)ccc(NCC3CO3)c21 (stereo unspecified) | GI50 | 2.71 µM (inactive) |
| COC(=O)[C@]1(C)CCC[C@@]2(C)C1CC[C@@]13C=C(C(C)C)[C@@H](CC1=O)CC23 (stereo partly specified) | GI50 | 41.3 µM (inactive) |
| CCOC(=O)C1=C(C)C2C3C(=O)NC(=O)C3C1(C)C1C(=O)NC(=O)C21 (stereo unspecified) | GI50 | > 100 µM (inactive) |
| Nc1nc(N)c2cc(-c3ccccc3)cnc2n1 | GI50 | 17.7 µM (inactive) |
| COC(=O)C(Cc1c(C2Nc3ccccc3C2CC(NC(C)=O)C(=O)OC)[nH]c2ccccc12)NC(C)=O (stereo unspecified) | GI50 | > 100 µM (inactive) |
| Cc1ccc(-c2cc(-c3ccccc3)c(C#N)c(=O)n2C2OC(CO)C(O)C(O)C2O)cc1 (stereo unspecified) | GI50 | > 100 µM (inactive) |
| OC1(C(Sc2cc(C(F)(F)F)cc(C(F)(F)F)c2)Sc2cc(C(F)(F)F)cc(C(F)(F)F)c2)C=CCCC1 (stereo unspecified) | GI50 | 2.71 µM (inactive) |
| Cc1cc(=O)[nH]c2cc(NC(=O)C(C)NC(=O)C(C)NC(=O)C(C)NC(=O)OC(C)(C)C)ccc12 (stereo unspecified) | GI50 | > 15 µM (inactive) |
| CC(C)N(C(=O)c1cccc(C(=O)N(C(C)C)C(C)C)c1)C(C)C | GI50 | > 100 µM (inactive) |
| COC(=O)C1Cc2ccc(O)c(O)c2CN1 (stereo unspecified) | GI50 | 17.3 µM (inactive) |
| CC1=C(/C=C/C(C)=C/C=C/C(C)=C/C(=O)OCC2OC(n3cc(F)c(=O)[nH]c3=O)CC2OC(=O)/C=C(C)/C=C/C=C(C)/C=C/C2=C(C)CCCC2(C)C)C(C)(C)CCC1 (stereo unspecified) | GI50 | 20.9 µM (inactive) |
| OCC(O)CNc1ncnc2ccccc12 (stereo unspecified) | GI50 | > 100 µM (inactive) |
| N[C@H](CCC(=O)NCP(=O)(O)O)C(=O)O | GI50 | > 100 µM (inactive) |
| NC1=CN(CCCO)C2=N/C(=C\c3ccccc3)C(=O)N12 | GI50 | > 100 µM (inactive) |
| CC1Cc2c(N)nc(NN)nc2NC1=O (stereo unspecified) | GI50 | > 100 µM (inactive) |
| COc1ccc2c(c1)CC1c3c(ccc(OC)c3O)CC2N1C (stereo unspecified) | GI50 | 21 µM (inactive) |
| c1ccc(C(CCN2CC3CCC(CC3)C2)c2ccccc2)cc1 | GI50 | 41.1 µM (inactive) |
| CN(CC#N)C1CCCC[C@H]1O (stereo partly specified) | GI50 | > 100 µM (inactive) |
| O=C(O)C1=NN=C(C(=O)O)NN1 | GI50 | > 100 µM (inactive) |
| Nc1nnc(NC(=O)C2=NS(=O)(=O)c3cc(S(N)(=O)=O)c(Cl)cc3N2)[nH]1 | GI50 | > 100 µM (inactive) |
| Nc1nc(Cl)cc(NCCCCCNc2cc(Cl)nc(N)n2)n1 | GI50 | 75 µM (inactive) |
